target: BIKE (Homo sapiens, UniProt Q9NSY1); construct: gene BMP2K; catalytic domain-containing construct; assay: biochemical; parameters: Thermal shift assay (DSF, SYPRO Orange), 2 uM kinase domain, mean delta Tm of triplicates versus DMSO; conditions: read-out: BIKE
Sequence (Q9NSY1 whole entry, the tested form may be a part): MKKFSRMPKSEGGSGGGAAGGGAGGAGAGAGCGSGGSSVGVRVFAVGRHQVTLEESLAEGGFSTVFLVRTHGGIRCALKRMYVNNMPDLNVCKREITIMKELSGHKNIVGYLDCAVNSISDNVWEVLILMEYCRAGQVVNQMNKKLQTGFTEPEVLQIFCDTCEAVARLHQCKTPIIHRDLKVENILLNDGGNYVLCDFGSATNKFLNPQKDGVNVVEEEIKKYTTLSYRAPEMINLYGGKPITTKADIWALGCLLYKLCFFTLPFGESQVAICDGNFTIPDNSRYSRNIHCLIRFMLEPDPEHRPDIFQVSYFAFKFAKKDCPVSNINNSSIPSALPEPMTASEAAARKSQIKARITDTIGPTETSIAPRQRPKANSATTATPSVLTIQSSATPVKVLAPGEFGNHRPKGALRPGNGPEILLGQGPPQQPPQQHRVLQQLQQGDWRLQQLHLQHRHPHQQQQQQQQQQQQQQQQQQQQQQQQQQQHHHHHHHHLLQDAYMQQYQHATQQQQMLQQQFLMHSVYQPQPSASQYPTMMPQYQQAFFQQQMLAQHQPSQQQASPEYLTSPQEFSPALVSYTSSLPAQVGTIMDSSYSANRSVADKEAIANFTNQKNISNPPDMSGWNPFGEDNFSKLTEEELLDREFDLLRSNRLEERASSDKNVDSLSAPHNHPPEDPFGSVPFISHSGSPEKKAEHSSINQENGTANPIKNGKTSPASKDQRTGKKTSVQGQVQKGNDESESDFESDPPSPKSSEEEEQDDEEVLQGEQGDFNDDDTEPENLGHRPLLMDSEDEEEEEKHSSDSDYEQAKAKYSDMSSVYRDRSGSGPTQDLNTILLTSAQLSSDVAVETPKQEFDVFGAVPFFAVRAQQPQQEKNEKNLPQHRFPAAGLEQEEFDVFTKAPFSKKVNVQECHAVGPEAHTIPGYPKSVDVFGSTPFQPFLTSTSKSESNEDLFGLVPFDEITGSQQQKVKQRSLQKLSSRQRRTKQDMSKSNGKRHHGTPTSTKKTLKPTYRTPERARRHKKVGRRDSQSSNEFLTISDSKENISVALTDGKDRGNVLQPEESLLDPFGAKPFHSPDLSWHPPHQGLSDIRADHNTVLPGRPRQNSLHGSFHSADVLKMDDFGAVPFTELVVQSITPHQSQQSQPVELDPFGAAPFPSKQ
Experimental Readout: ΔTm at 12.5 µM (°C)
Just the number please, in °C, no unit attached.

The compound listed as CCc1cc2c(cc1N1CCC(N3CCOCC3)CC1)C(C)(C)c1[nH]c3cc(C#N)ccc3c1C2=O has a reported ΔTm at 12.5 µM of 0.673

Lookup result for COc1ncc(-c2ccc3nccc(-c4ccnnc4)c3c2)cc1NS(=O)(=O)c1ccc(F)cc1F ; measured ΔTm at 12.5 µM: 5.45

Short answer for Cn1c(=O)n(-c2ccc(C(C)(C)C#N)cc2)c2c3cc(-c4cnc5ccccc5c4)ccc3ncc21 : ΔTm at 12.5 µM was 0.873

According to the records, this compound CCOc1cc2ncc(C#N)c(Nc3ccc(OCc4ccccn4)c(Cl)c3)c2cc1NC(=O)/C=C/CN(C)C displays ΔTm at 12.5 µM of 1.97
